# Lookup of reported IC50 keyed by entry
measured_target: T1, human GIPR (human), P48546
T1 chain: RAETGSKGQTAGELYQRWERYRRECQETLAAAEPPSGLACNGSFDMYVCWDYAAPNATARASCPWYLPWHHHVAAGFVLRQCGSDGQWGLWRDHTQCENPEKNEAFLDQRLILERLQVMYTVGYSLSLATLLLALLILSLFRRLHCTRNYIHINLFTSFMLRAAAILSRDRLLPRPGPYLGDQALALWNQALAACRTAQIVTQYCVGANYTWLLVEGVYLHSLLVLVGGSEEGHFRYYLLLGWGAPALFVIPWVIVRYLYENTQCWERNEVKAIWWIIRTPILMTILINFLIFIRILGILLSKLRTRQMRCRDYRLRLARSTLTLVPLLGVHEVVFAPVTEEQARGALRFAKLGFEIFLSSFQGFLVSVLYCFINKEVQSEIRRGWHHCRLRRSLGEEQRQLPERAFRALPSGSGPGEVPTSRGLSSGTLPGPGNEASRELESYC
test_details: [125I]GIP displacement, hGIPR VLP
Non-standard residues stand in square brackets, D forms with d. Groups on a side chain read outwards from the residue. Primed or numbered codes have the meaning given here. No end group written: not given here. *: point of attachment. NMeY = CN[C@@H](Cc1ccc(O)cc1)C(=O)O; αMeF = C[C@](N)(Cc1ccccc1)C(=O)O; Lauroyl = CCCCCCCCCCCC(=O)*; Iva = CC[C@](C)(N)C(=O)O; Aib = CC(C)(N)C(=O)O
Your answer is read as nM, so omit the unit and give the number.

Here is how some binders turned out for IC50.
[NMeY][Aib]EGTFISDYSIALDR[Aib]AQ[Aib]NFVNW[Iva]LAQRPSSGAPPPSR (ends and bridges not checked) [Compound 84]
1.2
Me-Y[Aib]EGTFISDYSIALDRIAQ[Aib]SFVNWLLAQRPSSGAPPPSR (not fully specified (residue 1, C-terminus); ends and bridges not checked) [Compound 136]
2.1
Y[Aib]EGTFISDYSK([PEG(2)-Lauroyl])ALDRIHQQS[αMeF]VNW[Iva]LAQRPSSGAPPPS (not fully specified (C-terminus); ends and bridges not checked) [Compound 223]
3

Kindly review the next binder as well.
Lookup: Recorded IC50 of [NMeY][Aib]EGTFISDYSIALDRIAQ[Aib]NFVNW[Iva]LAQRPSSGAPPPSR (not fully specified (C-terminus); ends and bridges not checked) [Compound 68] , please.
Found: 2.4

The reported measurements were obtained from patent US20180298070A1.
